Molecular target: CDK4/cyclin D3 (Homo sapiens, UniProt P11802)
Construct: purchased Carna Biosciences, Inc. QS S Assist CDK4/Cyclin D3_FP Kit
Sequence (P11802 whole entry): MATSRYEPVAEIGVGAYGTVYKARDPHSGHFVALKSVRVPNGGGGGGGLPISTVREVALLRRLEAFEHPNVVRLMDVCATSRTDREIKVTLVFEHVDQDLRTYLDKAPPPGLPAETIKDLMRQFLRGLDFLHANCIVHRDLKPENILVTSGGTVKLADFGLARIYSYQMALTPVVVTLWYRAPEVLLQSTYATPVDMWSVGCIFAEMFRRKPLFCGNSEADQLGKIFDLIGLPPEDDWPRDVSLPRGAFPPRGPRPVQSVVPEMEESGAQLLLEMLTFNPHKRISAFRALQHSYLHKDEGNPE
Sequence (P30281 whole entry partner): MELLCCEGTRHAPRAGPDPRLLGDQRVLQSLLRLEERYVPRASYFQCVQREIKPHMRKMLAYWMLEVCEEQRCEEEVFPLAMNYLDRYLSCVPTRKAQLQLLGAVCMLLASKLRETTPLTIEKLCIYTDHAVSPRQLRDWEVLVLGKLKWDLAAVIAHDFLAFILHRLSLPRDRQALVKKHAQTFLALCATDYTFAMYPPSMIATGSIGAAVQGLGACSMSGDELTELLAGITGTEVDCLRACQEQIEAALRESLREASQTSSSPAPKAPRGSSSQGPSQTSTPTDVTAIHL
Experiment: Human CDK4/cyclin D3 inhibitory activity (QS S Assist CDK4/Cyclin D3_FP Kit, IMAP fluorescence polarization)
Assay type: biochemical
Conditions: 50% inhibitory concentration against CDK4/cyclin D3, given as class symbol
# IC50 per entry

Check out these entries, answers already filled in.
Annotate the molecule "CC(C)Nc1nc([C@@H](C)O)cc2cnc(Nc3ccc(N4CCN(C(C)(C)C(=O)O)CC4)nn3)nc12" with its measured IC50.
< 10 nM

Supply IC50 value. Item: "CC(C)N(C)c1nc([C@@H](C)O)cc2cnc(Nc3ccc(N4CCNCC4=O)cn3)nc12"
10 to 100 nM

Give reported IC50 value for "C[C@@H](O)c1cc2cnc(Nc3ccc(OC[C@H]4CCCN4)cn3)nc2c(N[C@H]2CCCOC2)n1"
< 10 nM

Assign IC50 to the following record: "CC(C)Nc1nc([C@@H](C)O)cc2cnc(Nc3cnc(CN4CCN(CCO)CC4)cn3)nc12"
< 10 nM

Please give the documented IC50 of CC(C)Nc1nc([C@@H](C)O)cc2cnc(Nc3ccc(N4CCC(O)C5(CC5)C4)nn3)nc12 (stereo partly drawn)
< 10 nM

Hello, please tell me recorded IC50 for this one: "CC(C)Nc1nc([C@@H](C)O)c(Cl)c2cnc(Nc3ccc(N4CCC(O)CC4)nn3)nc12"
< 10 nM

State, in one line, measured IC50 of c1cc(N2CCNCC2)nnc1Nc1ncc2cc(C3CCOC3)nc(N[C@H]3CCCOC3)c2n1 (single isomer, unassigned) [Compound 939]
< 10 nM

For the molecule "CC(C)Nc1nc([C@@H](C)O)cc2cnc(Nc3ccc(N4CC(CO)C4)nn3)nc12" , give its reported IC50.
< 10 nM

Answer with reported IC50 of "CC(C)Nc1nc([C@@H](C)O)cc2cnc(Nc3ccc(CN4CCN(C5COC5)CC4)cn3)nc12"
< 10 nM

Specify reported IC50 for the molecule shown: c1cc(Nc2ncc3cc(C4CCOC4)nc(N[C@H]4CCCOC4)c3n2)ncc1CN1CCNCC1 (single isomer, unassigned) [Compound 941]
< 10 nM

New cases:
For the molecule C[C@@H](O)c1cc2cnc(Nc3ccc(CN4CCCC(O)C4)cn3)nc2c(N[C@H]2CCCOC2)n1 (stereo partly drawn) , give its reported IC50.
< 10 nM

Answer with reported IC50 of "CC(C)Nc1nc([C@@H](C)O)cc2cnc(Nc3ccc(N4CCN(CC(=O)N(C)C)CC4=O)cn3)nc12"
< 10 nM

Give me measured IC50, please, for this molecule: "CO[C@H](C)c1cc2cnc(Nc3ccc(CN4CCN(CCO)CC4)cn3)nc2c(NC(C)(C)CO)n1"
< 10 nM

Quickly give me recorded IC50 for "C[C@@H](O)c1cc2cnc(Nc3ccc4c(n3)CCN(C(=O)CO)C4)nc2c(N[C@H]2CCCOC2)n1"
< 10 nM

Read the entry "CO[C@H](C)c1cc2cnc(Nc3ccc(CN4CCN(CC(N)=O)CC4)cn3)nc2c(NC(C)C)n1" and write its reported IC50.
< 10 nM
